Overview of reported viability, T/C across a group of molecules:
Test system: 485368-065-R4-J2-PDC spheroids with HUVEC/MSC, viability
Assay: Anticancer human tumor 485368-065-R4-J2-PDC patient-derived pancreatic carcinoma cell line growth inhibition [CLK]
Settings: second compound 0.1 µM; first compound 0.316 µM; stronger effect = lower value

[
  {
    "MOLECULE": "CC1COCCN1c1cc(C2(S(C)(=N)=O)CC2)nc(-c2ccnc3[nH]ccc23)n1 (centres undefined) + CNC(=O)c1ccc(Nc2nc(OC3CCCC3)c3c(-c4ccc5nc(C)oc5c4)c[nH]c3n2)c(OC)c1",
    "TARGET OF ASSAY": "485368-065-R4-J2-PDC spheroids with HUVEC/MSC, viability",
    "viability, T/C (%)": 101
  },
  {
    "MOLECULE": "Nc1ccn(C2OC(CO)C(O)C2(F)F)c(=O)n1 (centres undefined) + CN1CCN(c2cc(C(=O)Nc3cc4cc(-c5cnn(C)c5)ccc4cn3)ccn2)CC1",
    "TARGET OF ASSAY": "485368-065-R4-J2-PDC spheroids with HUVEC/MSC, viability",
    "viability, T/C (%)": 19.5
  },
  {
    "MOLECULE": "CCN1CCN(Cc2ccc(Nc3ncc(F)c(-c4cc(F)c5nc(C)n(C(C)C)c5c4)n3)nc2)CC1 + CN1CCN(c2cc(C(=O)Nc3cc4cc(-c5cnn(C)c5)ccc4cn3)ccn2)CC1",
    "TARGET OF ASSAY": "485368-065-R4-J2-PDC spheroids with HUVEC/MSC, viability",
    "viability, T/C (%)": 126
  },
  {
    "MOLECULE": "O=c1[nH]cc(F)c(=O)[nH]1 + CNC(=O)c1ccc(Nc2nc(OC3CCCC3)c3c(-c4ccc5nc(C)oc5c4)c[nH]c3n2)c(OC)c1",
    "TARGET OF ASSAY": "485368-065-R4-J2-PDC spheroids with HUVEC/MSC, viability",
    "viability, T/C (%)": 97
  }
]

----------
Tested on: 485368-065-R4-J2-PDC spheroids with HUVEC/MSC, viability
Experiment: Anticancer human tumor 485368-065-R4-J2-PDC cell line growth inhibition [CLK];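 also: spheroids exposed to compounds for seven days; 100% = DMSO vehicle control wells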
Settings: second compound 0.1 µM; first compound 0.316 µM; stronger effect = lower value
Each entry below carries its reported viability, T/C.

[
  {
    "COMPOUND": "CCN1CCN(Cc2ccc(Nc3ncc(F)c(-c4cc(F)c5nc(C)n(C(C)C)c5c4)n3)nc2)CC1 + CNC(=O)c1ccc(Nc2nc(OC3CCCC3)c3c(-c4ccc5nc(C)oc5c4)c[nH]c3n2)c(OC)c1",
    "viability, T/C / %": 109
  },
  {
    "COMPOUND": "COc1cccc2c1C(=O)c1c(O)c3c(c(O)c1C2=O)CC(O)(C(=O)CO)CC3OC1CC(N)C(O)C(C)O1 (centres undefined) + CNC(=O)c1ccc(Nc2nc(OC3CCCC3)c3c(-c4ccc5nc(C)oc5c4)c[nH]c3n2)c(OC)c1",
    "viability, T/C / %": 55.9
  },
  {
    "COMPOUND": "C=C(F)C(=O)N1CCN(c2nc(OCC3CCCN3C)nc3c2CCN(c2cccc4cccc(Cl)c24)C3)CC1CC#N (centres undefined) + CNC(=O)c1ccc(Nc2nc(OC3CCCC3)c3c(-c4ccc5nc(C)oc5c4)c[nH]c3n2)c(OC)c1",
    "viability, T/C / %": 107
  },
  {
    "COMPOUND": "Nc1ccccc1NC(=O)c1ccc(CNC(=O)OCc2cccnc2)cc1 + CNC(=O)c1ccc(Nc2nc(OC3CCCC3)c3c(-c4ccc5nc(C)oc5c4)c[nH]c3n2)c(OC)c1",
    "viability, T/C / %": 102
  }
]

----------
System: 485368-065-R4-J2-PDC spheroids with HUVEC/MSC, viability
Assay: Anticancer human tumor 485368-065-R4-J2-PDC cell line growth inhibition [CLK];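 also: spheroids exposed to compounds for seven days; 100% = DMSO vehicle control wells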
Conditions: second compound 0.0316 µM; first compound 0.0316 µM; stronger effect = lower value
Field 'label' (enum: fulfilled / not fulfilled). Set to fulfilled when viability, T/C is strictly under 90%; else not fulfilled.

[
  {
    "MOLECULE": "Cn1ncnc1[C@H]1c2n[nH]c(=O)c3cc(F)cc(c23)N[C@@H]1c1ccc(F)cc1 + CNC(=O)c1ccc(Nc2nc(OC3CCCC3)c3c(-c4ccc5nc(C)oc5c4)c[nH]c3n2)c(OC)c1",
    "TARGET OF ASSAY": "485368-065-R4-J2-PDC spheroids with HUVEC/MSC, viability",
    "CLASS NAME": "not fulfilled"
  },
  {
    "MOLECULE": "C=CC(=O)N1CCN(c2nc(=O)n(-c3c(C)ccnc3C(C)C)c3nc(-c4c(O)cccc4F)c(F)cc23)C(C)C1 (stereo not drawn) + CNC(=O)c1ccc(Nc2nc(OC3CCCC3)c3c(-c4ccc5nc(C)oc5c4)c[nH]c3n2)c(OC)c1",
    "TARGET OF ASSAY": "485368-065-R4-J2-PDC spheroids with HUVEC/MSC, viability",
    "CLASS NAME": "not fulfilled"
  },
  {
    "MOLECULE": "CCc1c2c(nc3ccc(O)cc13)-c1cc3c(c(=O)n1C2)COC(=O)[C@]3(O)CC + CN1CCN(c2cc(C(=O)Nc3cc4cc(-c5cnn(C)c5)ccc4cn3)ccn2)CC1",
    "TARGET OF ASSAY": "485368-065-R4-J2-PDC spheroids with HUVEC/MSC, viability",
    "CLASS NAME": "fulfilled"
  },
  {
    "MOLECULE": "CC(=O)O[C@H]1C(=O)[C@@]2(C)[C@H]([C@H](OC(=O)c3ccccc3)[C@]3(O)C[C@H](OC(=O)[C@H](O)[C@@H](NC(=O)c4ccccc4)c4ccccc4)C(C)=C1C3(C)C)[C@]1(OC(C)=O)CO[C@@H]1C[C@@H]2O + CNC(=O)c1ccc(Nc2nc(OC3CCCC3)c3c(-c4ccc5nc(C)oc5c4)c[nH]c3n2)c(OC)c1",
    "TARGET OF ASSAY": "485368-065-R4-J2-PDC spheroids with HUVEC/MSC, viability",
    "CLASS NAME": "fulfilled"
  },
  {
    "MOLECULE": "CC(=O)O[C@H]1C(=O)[C@@]2(C)[C@H]([C@H](OC(=O)c3ccccc3)[C@]3(O)C[C@H](OC(=O)[C@H](O)[C@@H](NC(=O)c4ccccc4)c4ccccc4)C(C)=C1C3(C)C)[C@]1(OC(C)=O)CO[C@@H]1C[C@@H]2O + CN1CCN(c2cc(C(=O)Nc3cc4cc(-c5cnn(C)c5)ccc4cn3)ccn2)CC1",
    "TARGET OF ASSAY": "485368-065-R4-J2-PDC spheroids with HUVEC/MSC, viability",
    "CLASS NAME": "fulfilled"
  },
  {
    "MOLECULE": "C=C(F)C(=O)N1CCN(c2nc(OCC3CCCN3C)nc3c2CCN(c2cccc4cccc(Cl)c24)C3)CC1CC#N (stereo not drawn) + CN1CCN(c2cc(C(=O)Nc3cc4cc(-c5cnn(C)c5)ccc4cn3)ccn2)CC1",
    "TARGET OF ASSAY": "485368-065-R4-J2-PDC spheroids with HUVEC/MSC, viability",
    "CLASS NAME": "not fulfilled"
  },
  {
    "MOLECULE": "CC1COCCN1c1cc(C2(S(C)(=N)=O)CC2)nc(-c2ccnc3[nH]ccc23)n1 (stereo not drawn) + CNC(=O)c1ccc(Nc2nc(OC3CCCC3)c3c(-c4ccc5nc(C)oc5c4)c[nH]c3n2)c(OC)c1",
    "TARGET OF ASSAY": "485368-065-R4-J2-PDC spheroids with HUVEC/MSC, viability",
    "CLASS NAME": "fulfilled"
  }
]

----------
Test system: 485368-065-R4-J2-PDC spheroids with HUVEC/MSC, viability
Experiment: Anticancer human tumor 485368-065-R4-J2-PDC cell line growth inhibition [CLK]; active = viability on the fitted dose curve at most 10% of control; inactive = the rest;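 also: spheroids exposed to compounds for seven days; 100% = DMSO vehicle control wells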
Conditions: second compound 10 µM; first compound 0.1 µM
Outcome codes: active, inactive

[
  {
    "COMPOUND": "Cn1ncnc1[C@H]1c2n[nH]c(=O)c3cc(F)cc(c23)N[C@@H]1c1ccc(F)cc1 + CNC(=O)c1ccc(Nc2nc(OC3CCCC3)c3c(-c4ccc5nc(C)oc5c4)c[nH]c3n2)c(OC)c1",
    "CLASS NAME": "inactive"
  },
  {
    "COMPOUND": "CC(CO)NC(=O)c1cc(-c2ccc(Cl)cc2)nn(-c2cnn(C)c2)c1=O (stereo unspecified) + CN1CCN(c2cc(C(=O)Nc3cc4cc(-c5cnn(C)c5)ccc4cn3)ccn2)CC1",
    "CLASS NAME": "active"
  },
  {
    "COMPOUND": "CC1(C)CCC(CN2CCN(c3ccc(C(=O)NS(=O)(=O)c4ccc(NCC5CCOCC5)c([N+](=O)[O-])c4)c(Oc4cnc5[nH]ccc5c4)c3)CC2)=C(c2ccc(Cl)cc2)C1 + CN1CCN(c2cc(C(=O)Nc3cc4cc(-c5cnn(C)c5)ccc4cn3)ccn2)CC1",
    "CLASS NAME": "active"
  },
  {
    "COMPOUND": "CCCS(=O)(=O)Nc1ccc(F)c(C(=O)c2c[nH]c3ncc(-c4ccc(Cl)cc4)cc23)c1F + CNC(=O)c1ccc(Nc2nc(OC3CCCC3)c3c(-c4ccc5nc(C)oc5c4)c[nH]c3n2)c(OC)c1",
    "CLASS NAME": "inactive"
  },
  {
    "COMPOUND": "Cn1ncnc1[C@H]1c2n[nH]c(=O)c3cc(F)cc(c23)N[C@@H]1c1ccc(F)cc1 + CN1CCN(c2cc(C(=O)Nc3cc4cc(-c5cnn(C)c5)ccc4cn3)ccn2)CC1",
    "CLASS NAME": "active"
  },
  {
    "COMPOUND": "O=C(c1cc(Cc2n[nH]c(=O)c3ccccc23)ccc1F)N1CCN(C(=O)C2CC2)CC1 + CNC(=O)c1ccc(Nc2nc(OC3CCCC3)c3c(-c4ccc5nc(C)oc5c4)c[nH]c3n2)c(OC)c1",
    "CLASS NAME": "inactive"
  }
]
